# TARGET UNDER TEST: mGluR4 (UniProt Q14833)
# PROCEDURE DETAILS: mGluR4 potentiation assay (Ca2+ or thallium flux fluorescence, agonist EC20)
# Type: cell-based, human or rat
# MEASUREMENT SETUP: Table 3; read-out: mGlu4 EC50
Doc: threshold 0.03 µM (exclusive). Items with EC50 beneath it return 1 (yes); others return 0 (no).

Does `FC(F)(F)c1cccnc1Nc1ccc(Nc2n[nH]c3cccnc23)cc1Cl` have EC50 strictly under 0.03 µM?
0 (no)

Lab note: EC50 threshold 0.03 µM. Does this compound come in strictly under it? `FC(F)(F)c1ccnc(Nc2ccc(Nc3n[nH]c4cccnc34)cc2Cl)c1`
0 (no)

Decide: EC50 of `Clc1cc(Nc2n[nH]c3cccnc23)ccc1Nc1cnc2ccccc2c1` strictly below 0.03 µM?
0 (no)

Please let me know if `Clc1cccc(Nc2ccc(Nc3n[nH]c4cccnc34)cc2Cl)n1` shows EC50 below 0.03 µM.
0 (no)

# TODO verify EC50 < 0.03 µM strictly for this compound: `Cc1ccc(Nc2ccc(Nc3n[nH]c4cccnc34)cc2Cl)nc1`
1 (yes)

Could you please tell me whether EC50 recorded for `Cc1ccnc(Nc2ccc(Nc3n[nH]c4cccnc34)cc2Cl)c1` is less than 0.03 µM?
1 (yes)

Dear reviewer, please state whether `COc1ccnc(Nc2ccc(Nc3n[nH]c4cccnc34)cc2Cl)n1` has EC50 strictly beneath 0.03 µM.
1 (yes)

Would you kindly verify if EC50 of `Cc1cc(Nc2n[nH]c3cccnc23)ccc1Nc1ncccn1` is strictly less than 0.03 µM?
0 (no)

Just wondering, is EC50 of `Clc1cc(Nc2n[nH]c3cccnc23)ccc1Nc1cccnc1` below 0.03 µM?
0 (no)

Find out if reported EC50 for `Clc1cc(Nc2n[nH]c3cccnc23)ccc1Nc1cc2ccccc2cn1` is less than 0.03 µM
0 (no)

Please state whether EC50 is below 0.03 µM for `Clc1cc(Nc2n[nH]c3cccnc23)ccc1Nc1ncccn1`
0 (no)

Does this compound meet the criterion EC50 < 0.03 µM? `Clc1cc(Nc2n[nH]c3cccnc23)ccc1Nc1ccccn1`
0 (no)

Is EC50 of `Clc1cc(Nc2n[nH]c3cccnc23)ccc1Nc1cnc2ccccc2n1` strictly below 0.03 µM?
0 (no)

Hi there! Is EC50 for `Cc1cccc(Nc2ccc(Nc3n[nH]c4cccnc34)cc2Cl)n1` below 0.03 µM, do you know?
0 (no)

Is EC50 of `Clc1cc(Nc2n[nH]c3cccnc23)ccc1Nc1ncc2ccccc2n1` strictly below 0.03 µM?
1 (yes)

Quick check: does `Clc1cc(Nc2n[nH]c3cccnc23)ccc1Nc1nccc2cccnc12` have EC50 under 0.03 µM?
0 (no)

====

# TARGET UNDER TEST: mGluR4 (UniProt Q14833)
# PROCEDURE DETAILS: mGluR4 potentiation assay (Ca2+ or thallium flux fluorescence, agonist EC20)
# Assay type: cell-based, human or rat
# MEASUREMENT SETUP: Table 2; potentiation of mGluR4 agonist response; read-out: EC50
EXPERIMENTAL READOUT: EC50 (nM)
Return type: number; implicit unit nM.

Please report the measured EC50 for `Clc1cc(Nc2n[nH]c3cccnc23)ccc1OCc1ccncc1` tested on mGluR4 (UniProt Q14833).
270

Consider the compound `Fc1cccnc1Oc1ccc(Nc2n[nH]c3cccnc23)cc1Cl` tested on mGluR4 (UniProt Q14833); state its EC50.
635

Report the value of EC50 obtained on mGluR4 (UniProt Q14833) for `Cc1cc(Nc2n[nH]c3cccnc23)ccc1Oc1ncccn1` .
265

====

# TARGET UNDER TEST: mGluR4 (UniProt Q14833)
# PROCEDURE DETAILS: mGluR4 potentiation assay (Ca2+ or thallium flux fluorescence, agonist EC20)
# Type: cell-based, human or rat
# MEASUREMENT SETUP: Table 2; potentiation of mGluR4 agonist response; read-out: EC50
EXPERIMENTAL READOUT: EC50 (nM)
Report the figure in nM without appending any unit label.

Please report EC50 for the following molecule: `C[C@H](Oc1ccc(Nc2n[nH]c3cccnc23)cc1Cl)c1ccccn1`
610

Give reported EC50 value for `Clc1cc(Nc2n[nH]c3cccnc23)ccc1OC1CCCCC1`
470

Name the recorded EC50 of the molecule listed here: `Fc1cncc(Oc2ccc(Nc3n[nH]c4cccnc34)cc2Cl)c1`
611

Specify reported EC50 for the molecule shown: `Clc1cc(Nc2n[nH]c3cccnc23)ccc1OCc1nccs1`
360

Give the measured EC50 for `C[C@H](Oc1ccc(Nc2n[nH]c3cccnc23)cc1Cl)c1ccncc1`
1230

Please look at this molecule and report its EC50: `Clc1cc(Nc2n[nH]c3cccnc23)ccc1OCc1ncccn1`
1190

Fill in EC50 for record `Clc1ccccc1COc1ccc(Nc2n[nH]c3cccnc23)cc1Cl`
1500

Give the reported value of EC50 for this record: `Clc1cc(Nc2n[nH]c3cccnc23)ccc1OCc1cccnc1`
400

Look up EC50 of Clc1cc(Nc2n[nH]c3cccnc23)ccc1OC1CCCc2cccnc21 (stereo not drawn) and report it.
1000

====

Provide the reported pIC50 of each item.
# TARGET UNDER TEST: mGluR5 (Rattus norvegicus)
# Sequence (P31424 21-1203): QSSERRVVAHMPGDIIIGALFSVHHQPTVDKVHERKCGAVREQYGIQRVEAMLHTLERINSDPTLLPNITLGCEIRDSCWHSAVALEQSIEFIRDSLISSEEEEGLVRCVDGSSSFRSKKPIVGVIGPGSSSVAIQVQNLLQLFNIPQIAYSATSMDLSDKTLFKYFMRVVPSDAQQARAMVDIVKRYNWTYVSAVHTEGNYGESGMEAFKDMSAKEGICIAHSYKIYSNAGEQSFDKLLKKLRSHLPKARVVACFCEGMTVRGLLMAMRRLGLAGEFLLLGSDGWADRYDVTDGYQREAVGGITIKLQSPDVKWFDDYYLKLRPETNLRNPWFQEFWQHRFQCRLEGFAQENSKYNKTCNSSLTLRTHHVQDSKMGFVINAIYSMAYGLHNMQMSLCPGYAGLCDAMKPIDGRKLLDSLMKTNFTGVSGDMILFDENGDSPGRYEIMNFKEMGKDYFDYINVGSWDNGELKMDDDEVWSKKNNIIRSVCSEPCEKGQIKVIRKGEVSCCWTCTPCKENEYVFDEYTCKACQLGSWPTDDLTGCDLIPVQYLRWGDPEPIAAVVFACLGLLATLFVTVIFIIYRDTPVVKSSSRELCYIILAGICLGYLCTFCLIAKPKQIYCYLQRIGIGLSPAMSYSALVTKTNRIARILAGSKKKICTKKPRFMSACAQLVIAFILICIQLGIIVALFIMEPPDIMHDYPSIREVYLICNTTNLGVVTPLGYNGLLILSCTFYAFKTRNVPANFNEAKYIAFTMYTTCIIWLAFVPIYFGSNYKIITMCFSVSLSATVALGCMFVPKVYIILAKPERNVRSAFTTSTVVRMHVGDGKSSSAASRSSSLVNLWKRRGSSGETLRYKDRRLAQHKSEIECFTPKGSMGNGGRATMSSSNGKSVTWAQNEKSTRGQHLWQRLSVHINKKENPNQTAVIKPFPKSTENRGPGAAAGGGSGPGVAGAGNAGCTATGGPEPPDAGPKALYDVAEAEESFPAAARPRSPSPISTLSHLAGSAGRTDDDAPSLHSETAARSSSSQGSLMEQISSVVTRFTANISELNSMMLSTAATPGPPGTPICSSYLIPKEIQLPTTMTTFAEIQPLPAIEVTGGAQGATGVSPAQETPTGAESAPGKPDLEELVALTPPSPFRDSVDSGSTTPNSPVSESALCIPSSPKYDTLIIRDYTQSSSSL
# PROCEDURE DETAILS: mGluR5 negative allosteric modulation, decrease in response to non-maximal glutamate in HEK cells
# MEASUREMENT SETUP: Table 3; read-out: mGlu5 IC50
# pIC50: negative log10 of molar concentration; output just the value

Identify measured pIC50 associated with Clc1cc(Nc2n[nH]c3cccnc23)ccc1Nc1cnccn1 [Example 117]
7.00

Read the entry Clc1cc(Nc2n[nH]c3cccnc23)ccc1Nc1cccnc1 [Example 127] and write its reported pIC50.
7.66

Note pIC50 for the molecule shown: FC(F)(F)c1cccnc1Nc1ccc(Nc2n[nH]c3cccnc23)cc1Cl [Example 124]
5.81

Name the recorded pIC50 of the molecule listed here: Cc1ccnc(Nc2ccc(Nc3n[nH]c4cccnc34)cc2Cl)c1 [Example 129]
6.01

For the molecule Cc1ccc(Nc2ccc(Nc3n[nH]c4cccnc34)cc2Cl)nc1 [Example 119] , report pIC50.
6.23

Consider the molecule Clc1cc(Nc2n[nH]c3cccnc23)ccc1Nc1ccccn1 [Example 114] and give its recorded pIC50.
6.24

Check the records and state pIC50 for Clc1cccc(Nc2ccc(Nc3n[nH]c4cccnc34)cc2Cl)n1 [Example 116]
5.61

State its pIC50: Cc1cccc(Nc2ccc(Nc3n[nH]c4cccnc34)cc2Cl)n1 [Example 120]
6.26

Recall and state the measured pIC50 for COc1ccnc(Nc2ccc(Nc3n[nH]c4cccnc34)cc2Cl)n1 [Example 123] .
6.17
